- assay_info: Displacement of [3H]Spiperone from dopamine D2 like receptor in rat brain homogenates
- Assay type: tissue-based
result_type: Ki (µM)

(A) CCCN(CC[C@H]1CC[C@H](NC(=O)/C=C/c2ccc(OC)cc2)CC1)[C@H]1CCc2nc(N)sc2C1
(B) CCCN(CC[C@H]1CC[C@H](NS(=O)(=O)c2cccc3ccccc23)CC1)[C@H]1CCc2nc(N)sc2C1
Exercise: Which of these two has the smaller recorded Ki: A or B ? Use the label to indicate which entry you chose.
Key: B
(B: 0.031 µM, A: 0.094 µM)

(P) CCCN(CC[C@H]1CC[C@H](NS(=O)(=O)c2ccc(C(C)C)cc2)CC1)[C@H]1CCc2nc(N)sc2C1
(Q) CCCN(CC[C@H]1CC[C@H](NC(=O)c2ccc3ccccc3n2)CC1)[C@H]1CCc2nc(N)sc2C1
Exercise: Which of these two has the smaller recorded Ki: P or Q ? Use the label to indicate which entry you chose.
Key: Q

Cited source for all entries: ChEMBL document CHEMBL2146442
